pIC50 values, listed per item
Tested on: human colon cancer HCT116 cells
Assay Summary: Antiproliferative activity, SRB assay, 72 h
Assay type: cell-based
Test Settings: Homo sapiens, HCT-116; HCT116, 72 h, SRB; read-out: IC50
Units for pIC50: none; it is -log10 of a concentration expressed in mol/L.

# count of solved cases: 2
• C=C(C)[C@@H]1CC[C@]2(CO)CC[C@]3(C)C(CCC4[C@@]5(C)CC[C@H](OC(=O)CC(C)(C)CC(=O)O)C(C)(C)C5CC[C@]43C)C12 (stereo partly drawn) [Compound 4] = 4.95
• C#CC(=O)OC[C@]12CC[C@@H](C(=C)C)C1C1CCC3[C@@]4(C)CC[C@H](OC(=O)CCC(=O)O)C(C)(C)C4CC[C@@]3(C)[C@]1(C)CC2 (stereo partly drawn) [Compound 6a] = 4.68

Turning now to a further record.
Request: // lookup pIC50 | system=human colon cancer HCT116 cells | key= C#CCCC(=O)OC[C@]12CC[C@@H](C(=C)C)C1C1CCC3[C@@]4(C)CC[C@H](OC(=O)CC(C)(C)C(=O)O)C(C)(C)C4CC[C@@]3(C)[C@]1(C)CC2 (stereo partly drawn) [Compound 5b]
Result: 5.04
